Overview of reported MIC Range across a group of compounds:
Test system: methicillin-sensitive S. aureus (MSSA)
experimentNotes: In vitro MIC against isolates of MSSA
Type: cell-based, Staphylococcus aureus
conditions: MSSA (34 isolates)
measurementName: MIC Range

[[record]]
smiles = "CC(=O)NC[C@H]1CN(c2ccc(N3CCOCC3)c(F)c2)C(=O)O1"
val = "2 to 4 µg/mL"

[[record]]
smiles = "C[C@H]1c2cccc(O)c2C(=O)C2=C(O)[C@]3(O)C(=O)C(C(N)=O)=C(O)[C@@H](N(C)C)[C@@H]3[C@@H](O)[C@@H]21"
val = "0.12 to 8 µg/mL"

[[record]]
smiles = "CON(C)Cc1ccc(O)c2c1C[C@H]1C[C@H]3[C@H](N(C)C)C(O)=C(C(N)=O)C(=O)[C@@]3(O)C(O)=C1C2=O"
val = "0.25 to 16 µg/mL"

[[record]]
smiles = "Cc1onc(-c2ccccc2)c1C(=O)N[C@@H]1C(=O)N2[C@@H]1SC(C)(C)[C@@H]2C(=O)O"
val = "0.25 to 2 µg/mL"


----------
Tested on: Streptococcus spp. [Group C]
experimentNotes: In vitro MIC testing, antibacterial spectrum of activity
Type: cell-based
conditions: Streptococcus spp. [Group C] (30 isolates); read-out: MIC90
measurementName: MIC90 (µg/mL)

[[record]]
compound = "CC[C@H]1OC(=O)[C@H](C)[C@@H](O[C@H]2C[C@@](C)(OC)[C@@H](O)[C@H](C)O2)[C@H](C)[C@@H](O[C@@H]2O[C@H](C)C[C@H](N(C)C)[C@H]2O)[C@](C)(O)C[C@@H](C)C(=O)[C@H](C)[C@@H](O)[C@]1(C)O [Erythromycin]"
measurementname = "MIC90"
val = 4

[[record]]
compound = "CON(C)Cc1ccc(O)c2c1C[C@H]1C[C@H]3[C@H](N(C)C)C(O)=C(C(N)=O)C(=O)[C@@]3(O)C(O)=C1C2=O [The Active]"
measurementname = "MIC90"
val = 16

[[record]]
compound = "CCC[C@@H]1C[C@@H](C(=O)N[C@@H]([C@H]2O[C@H](SC)[C@H](O)[C@@H](O)[C@H]2O)[C@H](C)Cl)N(C)C1 [Clindamycin]"
measurementname = "MIC90"
val = 0.12

[[record]]
compound = "C[C@H]1c2cccc(O)c2C(=O)C2=C(O)[C@]3(O)C(=O)C(C(N)=O)=C(O)[C@@H](N(C)C)[C@@H]3[C@@H](O)[C@@H]21 [Doxycycline, doxycycline]"
measurementname = "MIC90"
val = 8


----------
Tested on: P. avidum
experimentNotes: In vitro MIC testing, antibacterial spectrum of activity
Type: cell-based
conditions: P. avidum [clinical isolates] (4 isolates)
measurementName: MIC Range

[[record]]
smiles = "CON(C)Cc1ccc(O)c2c1C[C@H]1C[C@H]3[C@H](N(C)C)C(O)=C(C(N)=O)C(=O)[C@@]3(O)C(O)=C1C2=O"
val = "1 to 4 µg/mL"

[[record]]
smiles = "CN(C)[C@@H]1C(O)=C(C(N)=O)C(=O)[C@@]2(O)C(O)=C3C(=O)c4c(O)cccc4[C@@](C)(O)[C@H]3C[C@@H]12"
val = "1 to 8 µg/mL"

[[record]]
smiles = "CN(C)c1ccc(O)c2c1C[C@H]1C[C@H]3[C@H](N(C)C)C(O)=C(C(N)=O)C(=O)[C@@]3(O)C(O)=C1C2=O"
val = "0.25 to 2 µg/mL"

[[record]]
smiles = "C[C@H]1c2cccc(O)c2C(=O)C2=C(O)[C@]3(O)C(=O)C(C(N)=O)=C(O)[C@@H](N(C)C)[C@@H]3[C@@H](O)[C@@H]21"
val = "0.5 to 4 µg/mL"

